assay_comment: Cytotoxicity screening (CellTiterGlo cell viability) in INS-1E ChoRE-LUC cells
Assay type: cell-based
run_parameters: rat, 24 h treatment
quantity: IC50 at 24 h

Input CCOC(=O)c1[nH]c2ccccc2c1NC(=O)/C=C/c1ccc(OC)c(OC)c1 . Output IC50 at 24 h: > 20 µM

Lab note: measured IC50 at 24 h of O=C(c1ccc(F)c(Cl)c1)N1CC2(CC(CCOCc3cccc(F)c3)CO2)C1 (centres unmarked) was > 20 µM

Quick note, IC50 at 24 h for FC(F)(F)c1ccc(CN2CCC(F)(c3noc(-c4ccncc4)n3)C2)cc1 (centres unmarked) landed at > 20 µM

According to the records, this compound CCS(=O)(=O)Oc1ccc(CN(Cc2ccc(F)cc2)C(=O)/C=C/c2ccccc2)cc1 displays IC50 at 24 h of > 20 µM

Lab book: IC50 at 24 h of CC[C@H](Nc1nc(NCc2cnc(C)cc2C)c2ncn(C(C)C)c2n1)[C@@H](C)O [CYC065, reference compound] noted as 0.85 µM

# IC50 at 24 h of Fc1cc(Br)ccc1CN1CCC(F)(c2noc(-c3ccncc3)n2)C1 (centres unmarked) = > 20 µM

So for O=C(NCc1ccco1)C(=Cc1ccc(Cl)c(Cl)c1)C(=O)NCc1ccco1 , the logged IC50 at 24 h turned out to be 3.98 µM

The compound Cc1cc(C)cc(C(=O)N2CC3(CC(CCOCc4cccc(F)c4)CO3)C2)c1 (centres unmarked) showed IC50 at 24 h equal to > 20 µM
